# target system: T1, DFNB31_1, Q9P202
# T1 sequence (Q9P202 135-233, limits assumed, looked up): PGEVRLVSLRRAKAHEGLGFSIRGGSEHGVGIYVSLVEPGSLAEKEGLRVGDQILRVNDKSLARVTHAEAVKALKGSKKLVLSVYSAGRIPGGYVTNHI
# protocol details: holdup assay
# Design: key: below the threshold = too weak to quantify, mostly under pKd 3.1 to 4
# conditions used: plain residues with an end cap or a label only (N-terminal biotin on a linker: ado-ado)
We begin with a simple list: items and their reported pKd.
No unit in the answer, please; the number alone is enough.

binder | pKd
PPYRHRNTVV [ERBB4, Q15303] | 3.57
RHGSCVETSL [TMEM151B, Q8IW70] | 4.61
SAKVRTVTSV [RASL11B, Q9BPW5] | 3.77
LGRSTPQSEV [DGKH, Q86XP1] | 3.52
RRISSLESEV [GRIN2C, Q14957] | 3.67

Request: Identify pKd associated with the binder TLPRKRMSSI [GPRC6A, Q5T6X5]
Result: 3.59

Request: Identify pKd associated with the binder TASPAKETSF [SLC2A7, Q6PXP3]
Result: 3.94

Request: Consider the binder QHKTQLQTLI [BPIFA2, Q96DR5] and give its recorded pKd.
Result: 4.38

Request: Provide measured pKd value, entry: GQEEQVTTRL [TRPC5, Q9UL62]
Result: 4.42

Request: Please indicate pKd recorded for QSARLWETSI [ADAM22, Q9P0K1]
Result: 5.41

Request: Report pKd for PRAEAEDSFL [PDGFRB, P09619]
Result: 3.62
